src = ChEMBL document CHEMBL3045848

tested on: Aspergillus niger; assay: Antifungal activity against Aspergillus niger at 100 ug/ml after 72 hr; type: functional; conditions: read-out: DIZ
measured_attribute: zone of inhibition at 100 µg/mL (mm)

compound: Cc1ccc2occ(/C=C/C(=O)C3C(=O)N(C)C(=O)N(C)C3=O)c(=O)c2c1
measurement_target: Aspergillus niger
units: mm
endpoint_value: 12
--
compound: CN1C(=O)C(C2=NNC(c3coc4ccccc4c3=O)C2)C(=O)N(C)C1=O (centres undefined)
measurement_target: Aspergillus niger
units: mm
endpoint_value: 8
--
compound: CN1C(=O)C(C(=O)/C=C/c2coc3ccccc3c2=O)C(=O)N(C)C1=O
measurement_target: Aspergillus niger
units: mm
endpoint_value: 8
--
compound: CN1C(=O)C(C2=NN(c3nc4ccccc4s3)C(c3coc4ccccc4c3=O)C2)C(=O)N(C)C1=O (centres undefined)
measurement_target: Aspergillus niger
units: mm
endpoint_value: 14

* * *

Below, each entry is listed with its recorded zone of inhibition at 100 µg/mL.
tested on: Escherichia coli; assay: Antibacterial activity against Escherichia coli K-12 at 100 ug/ml after 24 hr by filter paper disk method; type: functional; details: K-12, 24 h, read-out: DIZ
measured_attribute: zone of inhibition at 100 µg/mL (mm)

molecule: CN1C(=O)C(C2=NN(c3nc4ccccc4s3)C(c3coc4ccccc4c3=O)C2)C(=O)N(C)C1=O (stereo not given)
units: mm
endpoint_value: 18
//
molecule: CN1C(=O)C(C2=NC(=O)NC(c3coc4ccccc4c3=O)C2)C(=O)N(C)C1=O (stereo not given)
units: mm
endpoint_value: 15
//
molecule: CN1C(=O)C(c2cc(-c3coc4ccccc4c3=O)[nH]n2)C(=O)N(C)C1=O
units: mm
endpoint_value: 12
//
molecule: CN1C(=O)C(C2=NNC(c3coc4ccccc4c3=O)C2)C(=O)N(C)C1=O (stereo not given)
units: mm
endpoint_value: 15
//
molecule: Cc1ccc2occ(C3CC(C4C(=O)N(C)C(=O)N(C)C4=O)=NN3)c(=O)c2c1 (stereo not given)
units: mm
endpoint_value: 12
//
molecule: Cc1ccc2occ(C(Br)C(Br)C(=O)C3C(=O)N(C)C(=O)N(C)C3=O)c(=O)c2c1 (stereo not given)
units: mm
endpoint_value: 15
//
molecule: CN1C(=O)C(C(=O)C(Br)C(Br)c2coc3ccccc3c2=O)C(=O)N(C)C1=O (stereo not given)
units: mm
endpoint_value: 14
//
molecule: CN1C(=O)C(C(=O)/C=C/c2coc3ccccc3c2=O)C(=O)N(C)C1=O
units: mm
endpoint_value: 20
//
molecule: CN1C(=O)C(C2=NN(c3ccccc3)C(c3coc4ccccc4c3=O)C2)C(=O)N(C)C1=O (stereo not given)
units: mm
endpoint_value: 8
//
molecule: Cc1ccc2occ(/C=C/C(=O)C3C(=O)N(C)C(=O)N(C)C3=O)c(=O)c2c1
units: mm
endpoint_value: 20
